- target of assay: Vitamin D3 receptor (Homo sapiens) (UniProt P11473)
- Sequence (P11473 whole entry, looked up): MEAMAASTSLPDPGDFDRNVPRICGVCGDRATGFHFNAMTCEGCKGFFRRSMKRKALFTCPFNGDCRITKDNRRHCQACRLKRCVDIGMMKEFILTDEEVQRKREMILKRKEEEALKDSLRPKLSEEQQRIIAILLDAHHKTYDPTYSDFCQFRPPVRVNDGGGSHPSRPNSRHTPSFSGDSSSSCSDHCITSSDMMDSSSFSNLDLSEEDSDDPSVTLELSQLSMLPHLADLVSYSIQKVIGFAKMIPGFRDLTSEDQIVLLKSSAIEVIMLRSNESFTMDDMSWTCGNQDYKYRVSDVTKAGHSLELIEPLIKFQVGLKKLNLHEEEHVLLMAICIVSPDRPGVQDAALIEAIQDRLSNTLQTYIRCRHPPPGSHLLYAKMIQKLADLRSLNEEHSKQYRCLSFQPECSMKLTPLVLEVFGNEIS
- test name: qHTS assay to identify small molecule agonists of the vitamin D receptor (VDR) signaling pathway (AID 743222); note: % is set by controls: 0 for no effect and ±100 for the full control effect
- recorded conditions: HEK293T VDR-UAS-bla, beta-lactamase FRET ratio, 16 h; series mostly up to 63.5 µM
Inconclusive results are not listed. Calls of active or inactive are those of the source. Calls come from the whole dose curve.
endpoint: outcome

Worked examples, 5 compounds total:
>>> df
                                   compound                           target_of_assay  value_reported
0                               COCCOCCOCCO  Vitamin D3 receptor (Homo sapiens) (UniProt P11473)        inactive
1                    Cc1ccc(C(C)(C)C)c(O)c1  Vitamin D3 receptor (Homo sapiens) (UniProt P11473)        inactive
2  O=C(O)COCCN1CCN(C(c2ccccc2)c2ccc(Cl)cc2)CC1 (stereo not drawn)  Vitamin D3 receptor (Homo sapiens) (UniProt P11473)        inactive
3                      c1ccc2cc3ccccc3cc2c1  Vitamin D3 receptor (Homo sapiens) (UniProt P11473)        inactive
4                           Nc1ccc(O)c(N)c1  Vitamin D3 receptor (Homo sapiens) (UniProt P11473)        inactive

// lookup outcome | system=Vitamin D3 receptor (Homo sapiens) (UniProt P11473) | key= OC[C@@H](O)[C@@H](O[C@@H]1O[C@H](CO)[C@H](O)[C@H](O)[C@H]1O)[C@H](O)[C@@H](O)CO
inactive

Now the compound CC(=O)[C@H]1CC[C@H]2[C@@H]3CC=C4C[C@@H](O)CC[C@]4(C)[C@H]3CC[C@]12C
inactive

Now the compound Cc1ccc(C)c(O)c1
inactive

---

- test name: qHTS RealTime-Glo MT Cell Viability Assay in HepG2 cells - 24 hour (AID 1224867); note: % is set by controls: 0 for no effect and ±100 for the full control effect; nearly all actives have a fitted effect of over 50% in size
- recorded conditions: RealTime-Glo luminescence; series mostly up to 76.8 µM
Inconclusive results are not listed. Calls of active or inactive are those of the source. Calls follow the shape of the dose curve; as a rule, active = well fitted cell-killing curve with a large enough effect in the repeat runs; inconclusive = weak or mixed curves; inactive = flat fitted curve, though single readings scatter.
endpoint: activity change, negative = cytotoxicity

>>> print(df.to_string())
                                   molecule  value_reported
0                    c1ccc2c(c1)ccc1ncccc12        inactive
1  CCC(Cc1c(I)cc(I)c(N)c1I)C(=O)O (stereo not drawn)        inactive
2                             NCCS(=O)(=O)O        inactive

---

- target of assay: Luciferin 4-monooxygenase (Photinus pyralis) (UniProt P08659)
- Sequence (P08659 whole entry, looked up): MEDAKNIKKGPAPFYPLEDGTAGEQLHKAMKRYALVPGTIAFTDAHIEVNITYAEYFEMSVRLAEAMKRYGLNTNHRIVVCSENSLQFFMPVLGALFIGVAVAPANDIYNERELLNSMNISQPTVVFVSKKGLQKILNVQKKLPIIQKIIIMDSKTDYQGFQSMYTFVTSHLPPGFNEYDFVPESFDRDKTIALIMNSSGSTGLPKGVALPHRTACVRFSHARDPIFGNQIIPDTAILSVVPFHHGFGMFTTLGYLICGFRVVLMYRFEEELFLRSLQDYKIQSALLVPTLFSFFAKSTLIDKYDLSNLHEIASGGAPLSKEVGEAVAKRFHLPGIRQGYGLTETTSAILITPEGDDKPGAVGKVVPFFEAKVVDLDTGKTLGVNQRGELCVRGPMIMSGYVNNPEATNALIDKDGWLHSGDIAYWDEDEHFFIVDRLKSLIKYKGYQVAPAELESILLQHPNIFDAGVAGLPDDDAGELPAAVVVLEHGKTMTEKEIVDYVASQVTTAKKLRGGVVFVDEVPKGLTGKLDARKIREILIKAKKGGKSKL
- test name: qHTS assay to identify small molecule inhibitors of firefly luciferase (AID 1224835); note: nearly all actives have a fitted effect of over 25% in size
- recorded conditions: purified P. pyralis luciferase, luminescence inhibition; series mostly up to 115 µM
Inconclusive results are not listed. Calls of active or inactive are those of the source. Calls follow the shape of the dose curve; as a rule, active = well fitted inhibition curve with a large enough effect in the repeat runs; inconclusive = weak or mixed curves; inactive = flat fitted curve, though single readings scatter.
One label from this list, please: active, inactive

Which result was noted for this molecule in the test: Cc1cccc(Nc2ccccc2C(=O)O)c1C
active

Now the molecule CC(=O)[C@H]1CC[C@H]2[C@@H]3CC=C4C[C@@H](O)CC[C@]4(C)[C@H]3CC[C@]12C
inactive

Now the molecule CCCCCCCCCCCCCO
active

Now the molecule C[C@]12C=CC(=O)C=C1CC[C@H]1[C@@H]3C[C@@H](O)[C@](O)(C(=O)CO)[C@@]3(C)C[C@H](O)[C@@]12F
inactive

Now the molecule CNC[C@H](O)c1ccc(O)c(O)c1
inactive

Now the molecule CCC(=O)O[C@H]1[C@H](O[C@@H]2[C@@H](C)[C@H](O[C@H]3C[C@@](C)(OC)[C@@H](O)[C@H](C)O3)[C@@H](C)C(=O)O[C@H](CC)[C@@](C)(O)[C@H](O)[C@@H](C)C(=O)[C@H](C)C[C@@]2(C)O)O[C@H](C)C[C@@H]1N(C)C
inactive

Now the molecule Cc1ccc(C(C)(C)C)c(O)c1
inactive

Now the molecule O=Cc1ccccc1C=O
inactive

Now the molecule ClC/C=C/CCl
inactive

Now the molecule CC(=O)Nc1ccc2c(c1)Cc1cc(NC(C)=O)ccc1-2
inactive

Now the molecule C/C=C/C(=O)N(CC)c1ccccc1C
inactive

---

- target of assay: Progesterone receptor (Homo sapiens) (UniProt P06401)
- Sequence (P06401 whole entry, looked up): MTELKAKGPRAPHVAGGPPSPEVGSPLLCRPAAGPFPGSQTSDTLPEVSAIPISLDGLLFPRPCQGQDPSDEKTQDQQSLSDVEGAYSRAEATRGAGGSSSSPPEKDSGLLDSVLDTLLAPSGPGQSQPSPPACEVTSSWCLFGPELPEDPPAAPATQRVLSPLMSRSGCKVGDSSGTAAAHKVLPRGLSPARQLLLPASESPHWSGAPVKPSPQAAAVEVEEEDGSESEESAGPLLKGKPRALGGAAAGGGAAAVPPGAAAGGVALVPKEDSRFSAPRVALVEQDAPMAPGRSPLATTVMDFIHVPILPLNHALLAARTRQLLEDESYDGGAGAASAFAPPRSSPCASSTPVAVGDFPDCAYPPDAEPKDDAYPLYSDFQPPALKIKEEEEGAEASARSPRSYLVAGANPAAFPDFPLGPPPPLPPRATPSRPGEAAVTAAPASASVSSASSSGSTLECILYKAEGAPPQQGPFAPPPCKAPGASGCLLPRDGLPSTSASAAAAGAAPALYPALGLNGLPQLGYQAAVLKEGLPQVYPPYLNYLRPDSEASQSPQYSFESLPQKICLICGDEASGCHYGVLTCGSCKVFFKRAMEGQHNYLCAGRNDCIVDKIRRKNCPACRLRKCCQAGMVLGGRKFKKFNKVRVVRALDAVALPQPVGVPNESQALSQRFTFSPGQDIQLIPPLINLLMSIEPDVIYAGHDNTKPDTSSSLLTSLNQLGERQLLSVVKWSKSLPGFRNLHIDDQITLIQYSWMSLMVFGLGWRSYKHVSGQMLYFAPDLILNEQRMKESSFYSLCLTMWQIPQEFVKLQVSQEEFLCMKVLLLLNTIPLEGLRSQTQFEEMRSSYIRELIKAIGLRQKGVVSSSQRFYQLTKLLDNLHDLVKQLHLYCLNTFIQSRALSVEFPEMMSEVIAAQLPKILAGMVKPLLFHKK
- test name: qHTS assay to identify small molecule antagonists of the progesterone receptor (PR) signaling pathway (AID 1346795); note: % is set by controls: 0 for no effect and ±100 for the full control effect
- recorded conditions: PR-UAS-bla HEK293T, beta-lactamase FRET ratio, 16 h; series mostly up to 92.4 µM
Results filed as inconclusive are left out. The source made the active and inactive calls. The call rests on the fitted dose curve; in most records, active means well fitted inhibition curve with a large enough effect in the signal ratio in the repeat runs (not every such curve was filed as active); inconclusive means weak or mixed curves; inactive means flat fitted curve, though single readings scatter; the % refers to the signal ratio.
One label from this list, please: yes (1) = active, no (0) = inactive

Take a look at these entries with their results.
>>> df
                                   compound  assigned_class
0                    Cc1ccc(S(=O)(=O)O)cc1C          no (0)
1  CCCCCC1C(=O)CCC1CC(=O)OC (stereo not given)          no (0)
2                               ClC/C=C/CCl          no (0)
3                    Cc1ccc(C(C)(C)C)c(O)c1          no (0)
4               CC(C)(C)c1cccc(C(C)(C)C)c1O          no (0)

Which result was noted for this compound in the test: CCCOCCO
no (0)

Now the compound O=S1(=O)CCCO1
no (0)

Now the compound NCCS(=O)(=O)O
no (0)

Now the compound Nc1cc(Cl)c(N)c(Cl)c1
no (0)

Now the compound CC(=O)OC(C)C
no (0)

Now the compound Cc1ccc(S(=O)(=O)NCl)cc1
no (0)

Now the compound C[C@]12C=CC(=O)C=C1CC[C@H]1[C@@H]3C[C@@H](O)[C@](O)(C(=O)CO)[C@@]3(C)C[C@H](O)[C@@]12F
no (0)

Now the compound C=CC(=O)OCCCC
no (0)

Now the compound C=CC(C)(O)CCC=C(C)C (stereo not given)
no (0)

---

- test name: A CellTox Green Cytotoxicity Assay to monitor cytotoxicity in HEK293 cells - 0 hour (AID 1224869); note: % is set by controls: 0 for no effect and ±100 for the full control effect; nearly all actives have a fitted effect of over 50% in size
- recorded conditions: CellTox Green fluorescence; series mostly up to 76.8 µM
The source made the active and inactive calls. Calls come from the whole dose curve; as a rule, active = well fitted activation curve with a large enough effect in the repeat runs; inconclusive = weak or mixed curves; inactive = flat fitted curve, though single readings scatter.
One label from this list, please: 1.0 = active, 0.0 = inactive

                 molecule  assigned_class
0  Cc1ccc2c(c1)C(=O)OC2=O             0.0

Which result was noted for this molecule in the test: C[C@]12C=CC(=O)C=C1CC[C@H]1[C@@H]3C[C@@H](O)[C@](O)(C(=O)CO)[C@@]3(C)C[C@H](O)[C@@]12F
0.0

Now the molecule c1ccc2c(c1)ccc1cc3c(ccc4ccccc43)cc12
0.0

Now the molecule C1COCCN1
0.0

Now the molecule CCCCCCC(C)O (stereo unspecified)
0.0

Now the molecule Nc1cc(Cl)c(N)c(Cl)c1
0.0

Now the molecule C[C@]12CC[C@@H]3c4ccc(O)cc4CC[C@H]3[C@@H]1CC[C@@H]2O
0.0

Now the molecule Nc1ccc2c(O)cc(S(=O)(=O)O)cc2c1
0.0

---

- test name: qHTS assay to identify small molecule agonists of the RXR signaling pathway - cell viability counter screen (AID 1159529);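 note: HEK 293T cells carrying an RXR-alpha UAS beta-lactamase reporter; % is set by controls: 0 for no effect and ±100 for the full control effect; nearly all actives have a fitted effect of over 50% in size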
- recorded conditions: RXR-alpha-bla HEK293T viability, CellTiter-Glo, 16 h; series mostly up to 76.8 µM
Results filed as inconclusive are left out. The source made the active and inactive calls. Calls follow the shape of the dose curve; as a rule, active = well fitted cell-killing curve with a large enough effect in the repeat runs; inconclusive = weak or mixed curves, or effect the other way; inactive = no such curve, though single readings can be large or run the other way.
One label from this list, please: active, inactive

Take a look at these entries with their results.
                                   compound  assigned_class
0             Nc1cc([N+](=O)[O-])ccc1C(=O)O        inactive
1                      Nc1cc(Cl)c(N)c(Cl)c1        inactive
2  CCCCCCCCCCC(CO)CCCCCCCC (stereo not drawn)        inactive

Let's switch to this compound now.
Which result was noted for this compound in the test: [Na+]
inactive

---

- test name: qHTS RealTime-Glo MT Cell Viability Assay in HEK293 cells - 16 hour (AID 1224872); note: top concentration of the series differs between compounds; % is set by controls: 0 for no effect and ±100 for the full control effect; nearly all actives have a fitted effect of over 50% in size
- recorded conditions: RealTime-Glo luminescence; series mostly up to 76.8 µM
Results filed as inconclusive are left out. Activity calls are given as the source filed them. Calls come from the whole dose curve; as a rule, active = well fitted cell-killing curve with a large enough effect in the repeat runs; inconclusive = weak or mixed curves, or effect the other way; inactive = flat fitted curve, though single readings scatter.
One label from this list, please: class 1 (active), class 0 (inactive)

Take a look at these entries with their results.
>>> df
                        molecule  assigned_class
0    CCO[Si](CCCNC(N)=O)(OCC)OCC         class 0
1     CCCCCCCC/C=C\CCCCCCCC(=O)O         class 0
2                 O=Cc1ccccc1C=O         class 0
3                 CCCCCCCCCCCCCO         class 0
4  Nc1ccc2c(c1)C(=O)c1ccccc1C2=O         class 0

Which result was noted for this molecule in the test: Cc1cccc(Nc2ccccc2C(=O)O)c1C
class 0

Now the molecule Nc1ccc2c(O)cc(S(=O)(=O)O)cc2c1
class 0

Now the molecule Clc1ccc(Sc2cc(Cl)c(Cl)cc2Cl)cc1
class 0

Now the molecule [Na+]
class 0

Now the molecule CC(=O)Nc1ccc2c(c1)Cc1cc(NC(C)=O)ccc1-2
class 0

Now the molecule Oc1c(Cl)ccc(Cl)c1Cl
class 0

Now the molecule C1CN(SSN2CCOCC2)CCO1
class 0
